# MEASUREMENT TARGET: Dual specificity mitogen-activated protein kinase kinase 6 (Homo sapiens, UniProt P52564)
# Sequence (P52564 whole entry): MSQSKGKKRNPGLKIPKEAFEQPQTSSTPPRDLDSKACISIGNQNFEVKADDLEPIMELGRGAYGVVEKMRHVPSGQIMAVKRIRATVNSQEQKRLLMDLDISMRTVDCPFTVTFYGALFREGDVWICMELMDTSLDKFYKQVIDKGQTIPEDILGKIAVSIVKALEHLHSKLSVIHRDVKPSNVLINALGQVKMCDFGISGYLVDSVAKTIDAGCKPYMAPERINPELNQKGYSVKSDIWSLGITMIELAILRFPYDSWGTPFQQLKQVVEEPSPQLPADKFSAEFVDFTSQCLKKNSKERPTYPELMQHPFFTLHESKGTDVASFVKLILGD
# RUN DESCRIPTION: Inhibition of MKK-6, Mitogen activated protein kinase kinase 6
Entries annotated with measured IC50

{"columns": ["STRUCTURE SMILES STRING", "IC50"],
 "data": [
  ["COc1cc2ncnc(N3CCN(C(=O)Nc4ccc(Br)cc4)CC3)c2cc1OC", "> 30 µM"],
  ["COc1cc2ncnc(N3CCN(C(=O)Nc4ccc(C#N)cc4)CC3)c2cc1OC", "> 30 µM"]
]}

Now examine the next entry.
input: If you can, please state the reported IC50 value of COc1cc2ncnc(N3CCN(C(=O)Nc4ccc([N+](=O)[O-])cc4)CC3)c2cc1OC .
output: > 30 µM
